Target or system: UniProt P49682
Sequence (P49682 whole entry): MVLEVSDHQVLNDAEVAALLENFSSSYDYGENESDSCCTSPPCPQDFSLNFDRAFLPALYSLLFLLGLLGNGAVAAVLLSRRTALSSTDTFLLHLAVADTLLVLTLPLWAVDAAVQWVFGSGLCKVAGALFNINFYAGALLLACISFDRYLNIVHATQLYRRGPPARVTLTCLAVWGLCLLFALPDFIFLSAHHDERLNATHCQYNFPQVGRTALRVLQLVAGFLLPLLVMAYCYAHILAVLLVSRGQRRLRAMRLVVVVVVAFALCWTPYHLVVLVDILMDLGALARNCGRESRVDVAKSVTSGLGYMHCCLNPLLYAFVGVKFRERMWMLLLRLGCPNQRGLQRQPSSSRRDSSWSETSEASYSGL
Protocol description: FLIPR assay (CXCL10-induced calcium signal in CHO-K1 cells)
Assay setup: CHO-K1 cells expressing human CXCR3A coupled to Galpha(16); CXCL10 agonist 20 nM; mean values
Experimental endpoint: log10(IC50) (log10 of the value in nM)
Scale: log10; quantity: IC50; unit before log: nM

Give reported log10(IC50) value for CC[C@@H]1CN(c2sc(C(F)(F)F)nc2-c2cnc(C(F)(F)F)nc2)CCN1C(=O)Cn1nc(C)nc1C
-0.22

For every record below, what is its log10(IC50)?
1. Cc1nc(C)n(CC(=O)N2CCN(c3sc(C(F)(F)F)nc3-c3cnc(CCN(C)C)nc3)C[C@H]2C)n1
2. CCc1nc(C)nn1CC(=O)N1CCN(c2sc(C(F)(F)F)nc2-c2cnc(C(F)(F)F)nc2)C[C@H]1C (single isomer, unassigned)
3. COc1ccc(-c2nc(C(F)(F)F)sc2N2CCN(C(=O)Cn3nc(C)nc3C)[C@H](C)C2)cc1F
4. Cc1nc(C)n(CC(=O)N2CCN(c3sc(C(F)(F)F)nc3-c3ccc(C(F)(F)F)nc3)C[C@H]2C)n1
5. COc1ccc(-c2nc(C(F)(F)F)sc2N2CCN(C(=O)Cn3nc(C)nc3C)[C@H](C)C2)c(F)c1
6. Cc1nc(C)n(CC(=O)N2CCN(c3sc(C(F)(F)F)nc3-c3ccc(F)cc3)C[C@H]2C)n1

[1.96, 0.54, 1.30, 0.56, 1.65, 1.81]
